Study Target: Kras and SOS1 (biotin-tagged human Kras loaded with GDP, His-tagged human SOS1) (Homo sapiens, UniProt P01116, G12D)
Construct: made in house; host or cells: E. coli (stated for Kras only)
Sequence (P01116 1-188 isoform P01116-2 G12D): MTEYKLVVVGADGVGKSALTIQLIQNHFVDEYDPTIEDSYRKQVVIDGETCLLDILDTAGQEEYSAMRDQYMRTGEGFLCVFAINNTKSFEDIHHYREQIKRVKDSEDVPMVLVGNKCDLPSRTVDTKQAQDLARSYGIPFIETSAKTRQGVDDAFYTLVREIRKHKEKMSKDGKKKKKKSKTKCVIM
Protocol Summary: Protein-protein interaction inhibition between Kras and SOS1 (KrasGl2D-SOS PPI) using AlphaScreen
Type: binding
Experimental Parameters: AlphaScreen; biotin-tagged human Kras loaded with GDP, His-tagged human SOS1; read-out: KRAS G12D-SOS PPI IC50
Starred links: 1 amine or outer side, 2 acyl side, 3 side chain; linkers in the order of their positions; H or OH if unused. Positions of bridges follow the written chain, without caps; N, C: chain ends. Non-standard residues stand in square brackets, D forms with d. Residues, ends and D or L forms follow the SMILES beside them. *: point of attachment. hPhe(3-Cl-4-CF3) = N[C@@H](CCc1ccc(C(F)(F)F)c(Cl)c1)C(=O)O; NMePhe(4-CF3) = CN[C@@H](Cc1ccc(C(F)(F)F)cc1)C(=O)O; hPhe(4-CF3) = N[C@@H](CCc1ccc(C(F)(F)F)cc1)C(=O)O; X46 = COc1cncc(C[C@@H](C(=O)[*:2])N(C)[*:1])c1; NMePhe(2-Cl) = CN[C@@H](Cc1ccccc1Cl)C(=O)O; NMeGly(cPent) = CN[C@H](C(=O)O)C1CCCC1; NMeCha = CN[C@@H](CC1CCCCC1)C(=O)O; NMeChg = CN[C@H](C(=O)O)C1CCCCC1; NMeD = CN[C@@H](CC(=O)O)C(=O)O; NMeL = CN[C@@H](CC(C)C)C(=O)O; NMeNva = CCC[C@H](NC)C(=O)O; NMeV = CN[C@H](C(=O)O)C(C)C; d(β3hA) = C[C@@H](N)CC(=O)O; NMeA = CN[C@@H](C)C(=O)O; Piperidide = C1CCN(*)CC1; Pyrrolidide = C1CCN(*)C1; dNMeA = CN[C@H](C)C(=O)O; Ac5c = NC1(C(=O)O)CCCC1; Aze = O=C(O)[C@@H]1CCN1; Sar = CNCC(=O)O
Quantity Name: log10(IC50) (log10 of the value in nM)
Heads up, the numbers here are log10 of IC50 in nM units.

CC[C@H](C)[C@@H]1NC(=O)[C@H](CC(C)C)N(C)C(=O)C[C@@H](C(=O)N2CCCCC2)N(C)C(=O)[C@H](C(C)C)N(C)C(=O)C2(CCCC2)NC(=O)[C@@H]2CCCN2C(=O)[C@H](CCc2ccc(C(F)(F)F)cc2)NC(=O)CN(C)C(=O)[C@H](CC2CCCCC2)N(C)C(=O)CN(C)C(=O)CN(C)C1=O [Compound 108] ([NMeL]I[Sar][Sar][NMeCha][Sar][hPhe(4-CF3)]P[Ac5c][NMeV][NMeD]-Piperidide; lactam N-11) = 0.70
CCC[C@H]1C(=O)N[C@@H]([C@@H](C)CC)C(=O)N(C)CC(=O)N(C)CC(=O)N(C)[C@@H](Cc2ccc(C(F)(F)F)cc2)C(=O)N(C)CC(=O)N[C@@H](CCc2ccc(C(F)(F)F)c(Cl)c2)C(=O)N2CCC[C@H]2C(=O)NC2(CCCC2)C(=O)N(C)[C@@H](C2CCCCC2)C(=O)N(C)[C@H](C(=O)N2CCCC2)CC(=O)N1C [Compound 1984] ([NMeNva]I[Sar][Sar][NMePhe(4-CF3)][Sar][hPhe(3-Cl-4-CF3)]P[Ac5c][NMeChg][NMeD]-Pyrrolidide; lactam N-11) = -0.42
CC[C@H](C)[C@@H]1NC(=O)[C@H](C)N(C)C(=O)C[C@@H](C(=O)N2CCCC2)N(C)C(=O)[C@H](C2CCCCC2)N(C)C(=O)C2(CCCC2)NC(=O)[C@@H]2CCCN2C(=O)[C@H](CCc2ccc(C(F)(F)F)c(Cl)c2)NC(=O)CN(C)C(=O)[C@H](CC2CCCCC2)N(C)C(=O)CN(C)C(=O)CN(C)C1=O [Compound 1720] ([NMeA]I[Sar][Sar][NMeCha][Sar][hPhe(3-Cl-4-CF3)]P[Ac5c][NMeChg][NMeD]-Pyrrolidide; lactam N-11) = -0.24
CC[C@H](C)[C@@H]1NC(=O)[C@H](C)N(C)C(=O)C[C@@H](C)NC(=O)[C@H](C2CCCC2)N(C)C(=O)C2(CCCC2)NC(=O)[C@@H]2CCCN2C(=O)[C@H](CCc2ccc(C(F)(F)F)c(Cl)c2)NC(=O)[C@@H](C)N(C)C(=O)[C@H](Cc2ccccc2Cl)N(C)C(=O)CN(C)C(=O)CN(C)C1=O [Compound 539] (cyclo([Ac5c][NMeGly(cPent)][d(β3hA)][NMeA]I[Sar][Sar][NMePhe(2-Cl)][dNMeA][hPhe(3-Cl-4-CF3)]P)) = 2.28

Query :: Any idea what log10(IC50) was measured for CC[C@H](C)[C@@H]1NC(=O)[C@H](CC(C)C)N(C)C(=O)C[C@@H](C(=O)N2CCCCC2)N(C)C(=O)[C@H](C2CCCCC2)N(C)C(=O)C2(CCCC2)NC(=O)[C@H](Cc2cncc(OC)c2)N(C)C(=O)[C@H](CCc2ccc(C(F)(F)F)c(Cl)c2)NC(=O)CN(C)C(=O)[C@H](CC2CCCCC2)N(C)C(=O)[C@@H]2CCN2C(=O)CN(C)C1=O [Compound 770] ([NMeL]I[Sar][Aze][NMeCha][Sar][hPhe(3-Cl-4-CF3)][X46][Ac5c][NMeChg][NMeD]-Piperidide; lactam N-11) ?
Result :: 1.30
